system: Somatostatin receptor type 3 (Mus musculus)
Sequence (P30935 whole entry): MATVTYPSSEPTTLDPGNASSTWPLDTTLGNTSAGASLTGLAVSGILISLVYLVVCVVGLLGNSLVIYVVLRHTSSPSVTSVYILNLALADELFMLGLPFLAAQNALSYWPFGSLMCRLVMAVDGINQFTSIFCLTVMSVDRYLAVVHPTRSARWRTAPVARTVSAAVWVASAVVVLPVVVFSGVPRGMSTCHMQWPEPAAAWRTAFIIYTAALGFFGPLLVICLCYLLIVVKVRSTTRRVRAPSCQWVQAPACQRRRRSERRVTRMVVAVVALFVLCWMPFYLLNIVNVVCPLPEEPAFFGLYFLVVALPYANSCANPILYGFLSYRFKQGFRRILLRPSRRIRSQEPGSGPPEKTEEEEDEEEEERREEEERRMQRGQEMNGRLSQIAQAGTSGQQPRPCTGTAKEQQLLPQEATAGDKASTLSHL
assay_explanation: Antagonist activity at mouse SST3 receptor expressed in CHO cells assessed as inhibition of forskolin/SS-14-stimulated cAMP accumulation preincubated for 15 mins before SS-14 challenge measured after 1 hr by time-resolved fluorescence analysis
Assay type: functional, cell-based
reported_endpoint: pIC50
Would you please state pIC50, meaning minus log10 of the concentration in mol/L, as a bare number?

Data point: c1ccc(-c2c[nH]c([C@H]3Cc4c([nH]c5ccccc45)[C@@H](C4CCOCC4)N3)n2)cc1 ; pIC50 = 7.80

====

Record form. Attribute: pIC50. Fill in for each entry.
system: Voltage-gated inwardly rectifying potassium channel KCNH2 (Homo sapiens, UniProt Q12809)
Sequence (Q12809 whole entry): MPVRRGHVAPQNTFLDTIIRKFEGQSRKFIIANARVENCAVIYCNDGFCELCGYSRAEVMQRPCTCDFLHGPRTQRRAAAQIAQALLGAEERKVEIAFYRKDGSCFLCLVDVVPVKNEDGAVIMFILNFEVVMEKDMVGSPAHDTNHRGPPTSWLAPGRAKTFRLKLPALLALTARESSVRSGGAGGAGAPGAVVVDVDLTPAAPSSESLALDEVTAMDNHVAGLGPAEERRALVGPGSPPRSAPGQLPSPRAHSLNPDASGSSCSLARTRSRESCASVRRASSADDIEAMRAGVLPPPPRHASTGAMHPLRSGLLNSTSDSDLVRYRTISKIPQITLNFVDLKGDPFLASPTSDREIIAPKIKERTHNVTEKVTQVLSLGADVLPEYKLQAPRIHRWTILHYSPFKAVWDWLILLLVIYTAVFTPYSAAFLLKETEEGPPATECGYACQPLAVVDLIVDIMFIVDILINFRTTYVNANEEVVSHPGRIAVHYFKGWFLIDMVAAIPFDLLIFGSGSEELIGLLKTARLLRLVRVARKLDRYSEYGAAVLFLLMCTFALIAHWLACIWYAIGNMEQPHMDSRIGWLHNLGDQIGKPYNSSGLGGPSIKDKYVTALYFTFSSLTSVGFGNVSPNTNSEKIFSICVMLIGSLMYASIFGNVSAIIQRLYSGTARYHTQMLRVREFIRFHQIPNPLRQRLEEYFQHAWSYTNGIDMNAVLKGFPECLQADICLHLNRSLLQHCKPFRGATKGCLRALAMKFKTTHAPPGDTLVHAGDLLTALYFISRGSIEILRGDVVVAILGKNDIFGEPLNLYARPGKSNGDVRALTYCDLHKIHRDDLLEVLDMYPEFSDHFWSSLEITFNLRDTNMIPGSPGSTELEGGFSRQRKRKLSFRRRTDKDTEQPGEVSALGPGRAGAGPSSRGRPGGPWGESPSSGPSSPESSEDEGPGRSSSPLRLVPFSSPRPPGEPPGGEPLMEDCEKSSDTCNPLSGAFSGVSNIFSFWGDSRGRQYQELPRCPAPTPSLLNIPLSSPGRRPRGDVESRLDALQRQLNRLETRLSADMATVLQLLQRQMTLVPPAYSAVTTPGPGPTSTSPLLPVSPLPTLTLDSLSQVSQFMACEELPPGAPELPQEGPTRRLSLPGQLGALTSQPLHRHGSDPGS
assay_explanation: Displacement of [35S]MK499 from human Erg expressed in HEK293 cells after 60 mins by scintillation counting
Would you please state pIC50, meaning minus log10 of the concentration in mol/L, as a bare number?

Voltage-gated inwardly rectifying potassium channel KCNH2 (Homo sapiens, UniProt Q12809) data for [O-][S+]1CCC(C2N[C@@H](c3nc(-c4ccccc4)c[nH]3)Cc3c2[nH]c2ccccc32)CC1 (single isomer, unassigned; isomer 2) ; its pIC50: 7.00

Voltage-gated inwardly rectifying potassium channel KCNH2 (Homo sapiens, UniProt Q12809) data for COC(=O)N1CCC(C2N[C@@H](c3nc(-c4ccccc4)c[nH]3)Cc3c2[nH]c2ccccc32)CC1 (stereo partly drawn) ; its pIC50: 6.15

Voltage-gated inwardly rectifying potassium channel KCNH2 (Homo sapiens, UniProt Q12809) data for CCCCC1(CCCC)N[C@@H](c2nc(-c3ccccc3)c[nH]2)Cc2c1[nH]c1ccccc21 ; its pIC50: 6.82

====

assay_explanation: Half life in C57BL/6N mouse at 1 mg/kg, iv and 2 mg/kg, po
Type: ADME, organism-based
condition_parameters: in vivo
Record form. Attribute: half-life. Fill in for each entry.
Only the number, expressed in min, is required.

Data point: c1ccc(-c2c[nH]c([C@H]3Cc4c([nH]c5ccccc45)C(C4CCCCC4)N3)n2)cc1 (stereo partly drawn) ; half-life = 8.4

Data point: c1ccc(-c2c[nH]c([C@H]3Cc4c([nH]c5ccccc45)[C@@H](C4CCOCC4)N3)n2)cc1 ; half-life = 96

Data point: CCOCC1(COCC)N[C@@H](c2nc(-c3ccccc3)c[nH]2)Cc2c1[nH]c1ccccc21 ; half-life = 32.4

====

Record form. Attribute: IC50. Fill in for each entry.
system: Voltage-gated L-type calcium channel (Homo sapiens, UniProt Q13936+Q13698+Q01668+O60840)
assay_explanation: Binding affinity to L-type calcium channel
Only the number, expressed in nM, is required.

Data point: CCOCC1(COCC)N[C@@H](c2nc(-c3ccccc3)c[nH]2)Cc2c1[nH]c1ccccc21 ; IC50 = 1526

Data point: c1ccc(-c2c[nH]c([C@H]3Cc4c([nH]c5ccccc45)[C@@H](C4CCOCC4)N3)n2)cc1 ; IC50 = 1900

Data point: CCCCC1(CCCC)N[C@@H](c2nc(-c3ccccc3)c[nH]2)Cc2c1[nH]c1ccccc21 ; IC50 = 128

Data point: c1ccc(-c2c[nH]c([C@H]3Cc4c([nH]c5ccccc45)C(C4CCCCC4)N3)n2)cc1 (some centres undefined) ; IC50 = 308

====

system: Somatostatin receptor type 1 (Homo sapiens, UniProt P30872)
Sequence (P30872 whole entry): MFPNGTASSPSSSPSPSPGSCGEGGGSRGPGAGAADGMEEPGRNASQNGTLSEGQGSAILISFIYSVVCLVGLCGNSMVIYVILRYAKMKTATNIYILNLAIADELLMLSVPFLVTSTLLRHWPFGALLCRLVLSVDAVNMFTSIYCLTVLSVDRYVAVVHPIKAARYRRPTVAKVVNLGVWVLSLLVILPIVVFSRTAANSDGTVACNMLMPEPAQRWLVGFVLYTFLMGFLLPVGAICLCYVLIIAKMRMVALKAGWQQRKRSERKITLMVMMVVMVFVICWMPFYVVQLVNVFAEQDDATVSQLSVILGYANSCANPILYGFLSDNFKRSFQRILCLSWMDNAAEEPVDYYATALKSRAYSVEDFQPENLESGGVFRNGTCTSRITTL
assay_explanation: Binding affinity to human SST1 receptor expressed in CHO cells
pIC50: −log10 of the molar value.
reported_endpoint: pIC50

Data point: c1ccc(-c2c[nH]c([C@H]3Cc4c([nH]c5ccccc45)[C@@H](C4CCOCC4)N3)n2)cc1 ; pIC50 = < 6.00
